Reference source for all entries: patent EP0967201A1

Measurement target: MMP-8 (Homo sapiens)
Construct: catalytic domain (Met80-Gly242) of human neutrophil collagenase
Sequence (P22894 100-262 limits assumed): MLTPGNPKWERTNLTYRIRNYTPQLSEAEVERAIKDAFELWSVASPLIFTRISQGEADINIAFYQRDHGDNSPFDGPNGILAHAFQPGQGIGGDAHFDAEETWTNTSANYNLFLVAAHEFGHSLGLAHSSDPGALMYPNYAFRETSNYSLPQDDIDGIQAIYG
Protocol: MMP inhibition enzyme assay (initial reaction rate, standard substrate DNP-Pro-Leu-Gly-Leu-Trp-Ala-D-Arg-NH2)
Measurement parameters: 8 nM catalytic domain (Met80-Gly242) of human neutrophil collagenase; 10 microM substrate; pH 7.6; read-out: MMP-8 Inhib. [%] IC50
Attribute measured: IC50 (nM)
Numeric only. Scale: nM

Structure as smiles: O=C(C[C@H](NS(=O)(=O)c1ccc(-c2ccc(Cl)cc2)cc1)C(=O)O)OCc1ccccc1
Attribute measured: IC50
Display unit: nM
Value reported: 48.7

# next molecule below
**Q:** Provide the reported IC50 (system: MMP-8 (Homo sapiens)) for O=C(O)[C@H](CSCc1ccccc1)NS(=O)(=O)c1ccc(-c2ccc(Cl)cc2)cc1
**A:** 21.6
